# procedure text: Drug concentration in kidney of Golden Syrian hamster at 5 mg/kg, po bid measured after 8 hrs
# Format: ADME, organism-based, Mesocricetus auratus
# conditions: read-out: Ct
measurement type: concentration at 8 h (ng/g)

1) Cl.NCc1ccc(-c2nc(-c3ccnc(Oc4ccc(C(F)(F)F)cc4)c3)no2)cc1	56000

----------
# procedure text: Binding affinity to bacterial pro-SleC assessed as dissociation constant by MST assay
# Set-up: species or system Bacteria
pKd: −log10 of the molar value.
measurement type: pKd

1. Oc1ccc(-c2nc(-c3ccc(OC4CCCC4)cc3)no2)cc1	4.04
2. Cl.NCc1ccc(-c2nc(-c3ccnc(Oc4ccc(C(F)(F)F)cc4)c3)no2)cc1	4.80
